- tested_on: spike of SARS-CoV-2 Munich strain (authentic virus) (SARS-CoV-2)
- method_notes: cell-based or functional assay
Mark f for PRNT SARS-CoV-2 Munich IC50 values under 7 nM, and t for everything at or above.

Threshold query (PRNT SARS-CoV-2 Munich IC50 >= 7 nM) on 5p-60 (VHH, class II(A) psNb) VHH: QVQLVESGGGLVQAGGSLRLSCAVSGRTISTFGMGWFRQAPGKEREFVATITRDEDMLLYADSVKGRFTISRDTAKNMVFLQMNSLKIEDTALYYCAVRRDSSWGYSRQSTEYDYWGQGTQVTVSS
t

Could you do the same for 5p-118 (VHH, class II(B) psNb) VHH: QVQLVESGGGLVQAGESLRLSCAASKPTFRNFAAGWFRQTPGKDREFVAVIEYDGDSAYYADSVKGRFTISRDNAKNTVYLQMNRLKPGDTAVYICAIGGNHYDPSKYYTADEYDYWGQGTQVTVSS , please?
t

Could you do the same for 5p-38 (VHH, class II(B) psNb) VHH: QVQLVESGGGLVQAGGSLRLSCAAAARFSTSAMGWFRQAPGKEREFVAAISWSNTNTHYADTVKGRFTISADTAKETVDLQMNSLKPEDTAVYYCVQGGWGIRQPIIVDYWGKGTQVTVSS , please?
t

Could you do the same for 5p-182 (VHH, class I psNb) VHH: EVQLVESGGGLVQTGGSLRLSCALSGYTFSIFPTAWFRQAPGKEREFVAGIRWNGSTRDYTEYADFVKGRFTISRDNAKNMVYLQMISLKPEDTALYYCAASDGVIDGTNANAYRYWGQGTQVTVSS , please?
f

Could you do the same for 5p-35 (VHH, class II(B) psNb) VHH: HVQLVESGGGLVQAGGSLRLSCAASGRTFSRYAAGWFRQAPGKEREFVAVIEWDGDSAYYADPVKGRFTISRDNAKNTVYLQMNRLKPEDTAVYICAVGGNHYSRSKYYNLDEYDDWGQGTQVTVSS , please?
t

Source listed as patent US20250002563A1.
